Tested on: Staphylococcus aureus
Measurement Notes: Antimicrobial activity against methicillin-resistant Staphylococcus aureus isolate 12-16 after 18 hrs by agar dilution assay
Type: functional
Condition Info: isolate 12-16, 18 h
Metric: MIC
Form entry: enter the amount, then its unit.

Molecule	MIC
COc1ccc2c(c[n+]3c4c2ccc2c5c(cc(c24)CC3)OCO5)c1OCC(=O)c1cccc(OC(F)(F)F)c1.[Br-]	16 µg/mL
COc1ccc2c(c[n+]3c4c2ccc2c5c(cc(c24)CC3)OCO5)c1NC(=O)CC1CCCC1.[Cl-]	8 µg/mL
C[C@H]1COc2c(N3CCN(C)CC3)c(F)cc3c(=O)c(C(=O)O)cn1c23.C[C@H]1COc2c(N3CCN(C)CC3)c(F)cc3c(=O)c(C(=O)O)cn1c23.O [LEVOFLOXACIN]	32 µg/mL

Now, please, on to the next molecule.
Prompt: Bench note: what MIC did `COc1ccc2c(c[n+]3c4c2ccc2c5c(cc(c24)CC3)OCO5)c1NCc1ccco1.[Cl-]` show?
Completion: 64 µg/mL
